Readings of IC50 for the listed compounds
Target: Tie-2 (Homo sapiens, UniProt Q02763)
Sequence (Q02763 23-1124): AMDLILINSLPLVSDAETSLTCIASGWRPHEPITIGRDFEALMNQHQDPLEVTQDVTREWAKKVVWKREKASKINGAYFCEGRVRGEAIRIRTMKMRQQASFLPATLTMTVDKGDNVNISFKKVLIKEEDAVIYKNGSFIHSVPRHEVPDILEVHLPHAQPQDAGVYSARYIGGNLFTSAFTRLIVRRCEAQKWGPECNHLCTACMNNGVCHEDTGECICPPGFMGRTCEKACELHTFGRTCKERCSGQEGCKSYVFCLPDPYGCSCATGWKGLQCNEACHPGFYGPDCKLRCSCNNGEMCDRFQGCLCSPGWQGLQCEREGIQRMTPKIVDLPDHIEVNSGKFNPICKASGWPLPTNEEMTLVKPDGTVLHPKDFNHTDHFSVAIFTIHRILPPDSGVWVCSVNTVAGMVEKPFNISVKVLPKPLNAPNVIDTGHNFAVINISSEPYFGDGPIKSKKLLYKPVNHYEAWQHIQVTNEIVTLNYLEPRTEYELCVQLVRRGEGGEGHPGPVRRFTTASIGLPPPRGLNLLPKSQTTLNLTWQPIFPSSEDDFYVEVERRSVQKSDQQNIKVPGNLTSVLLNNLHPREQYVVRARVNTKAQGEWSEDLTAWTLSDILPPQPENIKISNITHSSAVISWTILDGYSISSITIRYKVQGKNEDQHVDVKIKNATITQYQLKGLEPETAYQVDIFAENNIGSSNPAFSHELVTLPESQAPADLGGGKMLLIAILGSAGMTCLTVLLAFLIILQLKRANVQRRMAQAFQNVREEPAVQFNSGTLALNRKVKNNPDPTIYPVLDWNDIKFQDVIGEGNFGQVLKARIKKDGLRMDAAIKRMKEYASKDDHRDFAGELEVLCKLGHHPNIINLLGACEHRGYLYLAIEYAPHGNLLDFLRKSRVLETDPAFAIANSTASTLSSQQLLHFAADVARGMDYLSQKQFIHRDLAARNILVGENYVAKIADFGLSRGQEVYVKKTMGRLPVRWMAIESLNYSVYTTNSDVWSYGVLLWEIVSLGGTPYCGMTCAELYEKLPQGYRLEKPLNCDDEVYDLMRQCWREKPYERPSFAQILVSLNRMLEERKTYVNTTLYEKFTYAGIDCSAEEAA

COMPOUND	IC50
Cc1nc(-c2ccc3nsnc3c2)nn1CCN(C(=O)Cc1cccc2ccccc12)C1CCCC1 [Entry 162]	50 to 1000 nM
Cc1nc(-c2ccnc(NCc3ccccc3)n2)nn1CCN(C(=O)Cc1cccc2ccccc12)C1CCCC1 [Entry 184]	50 to 1000 nM
COc1ccc(-c2nc(-c3cccnc3)nn2CCN(C(=O)Cc2cccc3ccccc23)C2CCCC2)cc1Cl [Entry 13]	≥ 10000 nM
CCOC(=O)Cn1nc(-c2ccncc2)nc1-c1ccc(OC)c(Cl)c1 [Entry 2]	≥ 10000 nM
Cc1ccc(-c2nc(-c3ccncc3)nn2CCN(C(=O)Cc2cccc3ccccc23)C2CCCC2)cc1 [Entry 70]	< 50 nM
Cc1cccc(-c2nc(-c3ccncc3)n(CCN(C(=O)Cc3cccc4ccccc34)C3CCCC3)n2)c1 [Entry 73]	1000 to 10000 nM
O=C(Cc1cccc2ccccc12)N(CCn1nc(-c2ccncc2)nc1-c1cccc(F)c1)C1CCCC1 [Entry 56]	< 50 nM
COc1ccc(-c2nc(-c3ccncc3)nn2CCN(C(=O)Cc2cccc3ccccc23)C2CCCC2)cc1 [Entry 39]	< 50 nM

* * *

pIC50, Tie-2 (Homo sapiens, UniProt Q02763), per-entry values.
pIC50: −log10 of the molar value.
ENDPOINT NAME: pIC50

COMPOUND STRUCTURE	TARGET	ENDPOINT NAME	EXPERIMENTAL VALUE
O=C(Cc1cccc2ccccc12)N(CCn1nc(-c2cccc(C(F)(F)F)c2)nc1-c1ccncc1)C1CCCC1	Tie-2 (Homo sapiens, UniProt Q02763)	pIC50	≤ 5.00
COc1ccc(-c2nc(-c3ccncc3)nn2CCN(C(=O)Nc2c(Cl)cc(Cl)cc2Cl)C2CCCC2)cc1Cl	Tie-2 (Homo sapiens, UniProt Q02763)	pIC50	≤ 5.00
O=C(Cc1cccc2ccccc12)N(CCn1nc(-c2ccncc2)nc1-c1ccccc1Cl)C1CCCC1	Tie-2 (Homo sapiens, UniProt Q02763)	pIC50	> 7.30
COc1ccc(-c2nc(-c3ccncc3)nn2CCN(C(=O)Cc2cccc3ccccc23)C(C)C)cc1Cl	Tie-2 (Homo sapiens, UniProt Q02763)	pIC50	≤ 5.00
COc1ccc(-c2nc(-c3ccncc3)nn2CCN(C(=O)Nc2cc(Cl)c(Cl)cc2Cl)C2CCCC2)cc1Cl	Tie-2 (Homo sapiens, UniProt Q02763)	pIC50	≤ 5.00
Cc1nc(-c2ccnc(NCCN(C)C)c2)nn1CCN(C(=O)Cc1cccc2ccccc12)C1CCCC1	Tie-2 (Homo sapiens, UniProt Q02763)	pIC50	6.00 to 7.30
COc1ccc(-c2nc(-c3ccncc3)n(CCN(C(=O)Nc3cccc4ccccc34)C3CCCC3)n2)cc1Cl	Tie-2 (Homo sapiens, UniProt Q02763)	pIC50	≤ 5.00

* * *

Form field: IC50 (one value per entry).
Target: Tie-2 (Homo sapiens)

MOLECULE	IC50
O=C(Cc1cccc2ccccc12)N(CCn1nc(-c2cccc(F)c2)nc1-c1ccncc1)C1CCCC1 [Entry 57]	1 to 10 µM
Cc1cccc(-c2nc(-c3ccncc3)nn2CCN(C(=O)Cc2cccc3ccccc23)C2CCCC2)c1 [Entry 72]	< 0.05 µM
C=CCNC(=O)N(CCn1nc(-c2ccncc2)nc1-c1ccc(OC)c(Cl)c1)C1CCCC1 [Entry 156]	≥ 10 µM
CCNc1cc(-c2nc(C)n(CCN(C(=O)Cc3cccc4ccccc34)C3CCCC3)n2)ccn1 [Entry 166]	< 0.05 µM
